Where do the numbers come from? From ChEMBL document CHEMBL1141975.

- Organism: Homo sapiens
- assay: IC50 ratio between PKCbeta II and GSK-3
Binning of Selectivity into classes: bottom = under 50, middle = from 50 up to 400, top = 400 and over

Previously resolved entries follow.
molecule | category.label
O=C1NC(=O)C(c2cnc3ncccn23)=C1c1cn2c3c(cccc13)CN(C(=O)N1CCCCC1)CC2 | top
O=C1NC(=O)C(c2cn3c4c(cccc24)CNCC3)=C1c1cccc2occc12 | bottom
O=C1NC(=O)C(c2cn3c4c(cccc24)CNCC3)=C1c1cccc2c1ccn2CCCO | bottom
O=C1NC(=O)C(c2cnc3cnccn23)=C1c1cn2c3c(cccc13)CN(C(=O)N1CCOCC1)CC2 | top
CC(C)C(=O)N1CCn2cc(C3=C(c4cnc5ccccn45)C(=O)NC3=O)c3cccc(c32)C1 | top
O=C1NC(=O)C(c2cccc3ccsc23)=C1c1cn2c3c(cccc13)CNCC2 | bottom

Determine which band this molecule sits in: O=C1NC(=O)C(c2cnc3cccnn23)=C1c1cn2c3c(cccc13)CN(C(=O)N1CCCCC1)CC2 [BISARYLMALEIMIDE 1] top

Determine which band this molecule sits in: CC(=O)N1CCn2cc(C3=C(c4cccc5c4OCC5)C(=O)NC3=O)c3cccc(c32)C1 middle

Determine which band this molecule sits in: CN(C)C(=O)N1CCn2cc(C3=C(c4ccn5ncccc45)C(=O)NC3=O)c3cccc(c32)C1 middle

Determine which band this molecule sits in: O=C1NC(=O)C(c2cnc3ccccn23)=C1c1cn2c3c(cccc13)CN(C(=O)C1CCOCC1)CC2 top

Determine which band this molecule sits in: CN(C)C(=O)N1CCn2cc(C3=C(c4cccc5ccoc45)C(=O)NC3=O)c3cccc(c32)C1 middle

Determine which band this molecule sits in: CN(C)C(=O)N1CCn2cc(C3=C(c4cnc5ccccn45)C(=O)NC3=O)c3cccc(c32)C1 top

Determine which band this molecule sits in: O=C1NC(=O)C(c2cncc3ccoc23)=C1c1cn2c3c(cccc13)CNCC2 middle

Determine which band this molecule sits in: O=C1NC(=O)C(c2cn3c4c(cccc24)CNCC3)=C1c1cccc2c1OCC2 middle

Determine which band this molecule sits in: CC(=O)N1CCn2cc(C3=C(c4cccc5ccoc45)C(=O)NC3=O)c3cccc(c32)C1 middle

Determine which band this molecule sits in: CCC(=O)N1CCn2cc(C3=C(c4cncc5ccoc45)C(=O)NC3=O)c3cccc(c32)C1 middle
